# assayed_system: T1, exemplary TAT frataxin fusion molecule (HIV-1, UniProt Q16595 1-210)
# T1 construct: in the bridging assays biotinylated and sulfotagged forms were used; also called TAT-FXN fusion molecule; TAT FXN fusion molecule
# T1 sequence: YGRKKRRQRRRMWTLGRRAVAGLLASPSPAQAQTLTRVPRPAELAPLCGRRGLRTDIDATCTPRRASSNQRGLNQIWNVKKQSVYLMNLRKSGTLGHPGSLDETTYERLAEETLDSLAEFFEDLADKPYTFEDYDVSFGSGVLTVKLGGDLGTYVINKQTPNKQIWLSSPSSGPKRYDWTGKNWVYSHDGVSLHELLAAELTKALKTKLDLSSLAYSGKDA
# method_description: PK sandwich ELISA in human plasma, antibody as capture, HRP anti-frataxin mAb detection
property_label: Mean OD at plasma conc. 3.20 ng/mL (OD)
Numeric answer only, unit OD assumed.

binder | experimental_value
antibody 10-12 (antibody, V domains shown, Rabbit monoclonal) VH: QSLEESGGDLVKPGASLTLTCTASGFSFSSGYWICWVRQAPGKGLEWIACIYTGDGDTSYASWAKGRFTISKTSSTTVTLQMTSLTVADTAIYFCARDTSGTFYYNLWGPGTLVAVSS VL: ELVLTQTASSVSAAVGGTVTISCQSSESVYKTNYLSWFQKKPGQPPKLLIYDASTLASGVPSRFSGSGSGTQFTLTISDLECDDAATYYCAGGYSDDINAFGGGTEVVVK | 0.23

Alright, here's another binder for you.
Input: Given the binder antibody 12-8 (antibody, V domains shown, Rabbit monoclonal) VH: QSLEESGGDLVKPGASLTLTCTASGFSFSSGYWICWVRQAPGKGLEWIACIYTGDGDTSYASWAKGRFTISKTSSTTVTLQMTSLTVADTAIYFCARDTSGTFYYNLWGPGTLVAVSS VL: AAVLTQTPSSVSAAVGGTVTISCQSSESVYKTNYLSWFQKKPGQPPKLLIYDASTLASGVPSRFSGSGSGTQFTLTISDLECDDAATYYCAGGYSDDINAFGGGTEVEIK , what is its reported Mean OD at plasma conc. 3.20 ng/mL?
Output: 0.225
